The measurements presented in this section are drawn from patent US7750003B2.

TARGET_OR_SYSTEM: recombinant mTOR (FLAG-tagged, residues 1362-2549) (Homo sapiens, UniProt P42345)
Sequence (P42345 1362-2549): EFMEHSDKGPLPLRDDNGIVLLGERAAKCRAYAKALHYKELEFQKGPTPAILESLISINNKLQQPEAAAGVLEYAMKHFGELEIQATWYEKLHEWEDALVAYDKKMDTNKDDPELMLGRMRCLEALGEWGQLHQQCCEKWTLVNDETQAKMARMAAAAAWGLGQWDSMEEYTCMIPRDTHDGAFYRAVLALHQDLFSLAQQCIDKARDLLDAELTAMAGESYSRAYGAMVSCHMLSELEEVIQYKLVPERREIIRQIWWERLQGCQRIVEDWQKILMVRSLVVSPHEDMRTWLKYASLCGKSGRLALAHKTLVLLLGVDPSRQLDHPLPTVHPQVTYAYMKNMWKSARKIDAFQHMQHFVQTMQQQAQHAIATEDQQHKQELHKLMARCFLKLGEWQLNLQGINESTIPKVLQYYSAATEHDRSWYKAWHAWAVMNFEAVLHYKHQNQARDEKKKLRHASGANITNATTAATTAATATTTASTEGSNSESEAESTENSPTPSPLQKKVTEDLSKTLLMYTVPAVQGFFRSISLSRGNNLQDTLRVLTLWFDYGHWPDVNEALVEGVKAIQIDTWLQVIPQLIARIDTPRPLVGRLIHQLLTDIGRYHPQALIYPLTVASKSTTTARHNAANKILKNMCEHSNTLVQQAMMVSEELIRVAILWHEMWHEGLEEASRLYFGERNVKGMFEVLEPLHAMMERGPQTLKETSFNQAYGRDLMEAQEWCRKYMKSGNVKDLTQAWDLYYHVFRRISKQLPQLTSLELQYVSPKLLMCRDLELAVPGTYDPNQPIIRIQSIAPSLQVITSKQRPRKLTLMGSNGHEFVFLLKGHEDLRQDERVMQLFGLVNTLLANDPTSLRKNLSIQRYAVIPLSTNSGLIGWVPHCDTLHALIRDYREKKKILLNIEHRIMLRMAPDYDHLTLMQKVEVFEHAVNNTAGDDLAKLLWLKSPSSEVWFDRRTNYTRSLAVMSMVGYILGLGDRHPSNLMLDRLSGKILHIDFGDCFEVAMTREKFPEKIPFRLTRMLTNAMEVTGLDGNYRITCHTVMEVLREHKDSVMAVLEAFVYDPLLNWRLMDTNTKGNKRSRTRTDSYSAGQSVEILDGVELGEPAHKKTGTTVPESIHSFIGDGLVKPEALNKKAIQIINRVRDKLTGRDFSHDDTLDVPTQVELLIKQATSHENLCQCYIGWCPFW
RUN_DESCRIPTION: In vitro mTOR kinase assay (Test (a), AlphaScreen)
RUN_PARAMETERS: ATP 20 μM, read-out: Test (a): IC50 versus mTOR kinase
PARAMETER_MEASURED: IC50 (nM)
Answers are plain numbers, in nM.

{"MOLECULE": "C[C@H]1COCCN1c1cc(CS(C)(=O)=O)nc(-c2ccc(NC(=O)NCc3ncc[nH]3)cc2)n1 [Example 35l]", "MEASUREMENT": 470}
{"MOLECULE": "C[C@H]1COCCN1c1cc(CS(C)(=O)=O)nc(-c2cnc(NC(=O)Nc3cnn(C)c3)s2)n1 [Example 46h]", "MEASUREMENT": 63}
{"MOLECULE": "C[C@H]1COCCN1c1cc(CS(=O)(=O)C2CC2)nc(-c2ccc(NC(=O)NC3CC3)cc2)n1", "MEASUREMENT": 62}
{"MOLECULE": "C[C@H]1COCCN1c1cc(CN2CC(O)C2)nc(-c2ccc(NC(=O)NC3CC3)cc2)n1 [Example 49k]", "MEASUREMENT": 14}
{"MOLECULE": "COCCNC(=O)Nc1ccc(-c2nc(N3CCOCC3)cc(C(C)(C)S(C)(=O)=O)n2)cc1 [Example 21e]", "MEASUREMENT": 1000}
{"MOLECULE": "C[C@H]1COCCN1c1cc(CS(=O)(=O)c2nccs2)nc(-c2ccc(NC(=O)NC3CC3)cc2)n1 [Example 43e]", "MEASUREMENT": 130}

// input: 4 molecules below; output: IC50 for each
1. CS(=O)(=O)Cc1cc(N2CCOCC2)nc(-c2ccc(NC(=O)N3CCCCC3)cc2)n1 [Example 45a]
2. CS(=O)(=O)Cc1cc(N2CCOCC2)nc(-c2ccc(NC(=O)N3CCOCC3)cc2)n1 [Example 45g]
3. CCNC(=O)NC1CCN(c2nc(N3CCOC[C@@H]3C)cc(C(C)(C)S(C)(=O)=O)n2)CC1 [Example 24o]
4. CNC(=O)NC1CCN(c2nc(N3CCOC[C@@H]3C)cc(C(C)(C)S(C)(=O)=O)n2)CC1 [Example 24n]

1: 630; 2: 41; 3: 3400; 4: 3200

// input: 5 molecules below; output: IC50 for each
1. CS(=O)(=O)Cc1cc(N2CCOCC2)nc(-c2ccc(NC(=O)NCCN3CCNC3=O)cc2)n1 [Example 45e]
2. COCCNC(=O)Nc1ccc(-c2nc(CS(C)(=O)=O)cc(N3CCOC[C@@H]3C)n2)cc1F
3. CC(C)NC(=O)Nc1ccc(-c2nc(CS(C)(=O)=O)cc(N3CCOC[C@@H]3C)n2)cc1F
4. C[C@H]1COCCN1c1cc(CS(C)(=O)=O)nc(-c2ccc(NC(=O)Nc3ccc(F)cc3)c(F)c2)n1
5. C[C@H]1COCCN1c1cc(CS(=O)(=O)CC#N)nc(-c2ccc(NC(=O)N(C)C)cc2)n1

560
830
140
360
2100

// input: 6 molecules below; output: IC50 for each
1. Cc1cc(NC(=O)Nc2ccc(-c3nc(CS(C)(=O)=O)cc(N4CCOC[C@@H]4C)n3)cc2)no1 [Example 22d]
2. C[C@H]1COCCN1c1cc(CNCCN(C)C)nc(-c2ccc(NC(=O)NC3CC3)cc2)n1 [Example 49g]
3. C[C@H]1COCCN1c1cc(C(C)(C)S(C)(=O)=O)nc(N2CCC(NC(=O)NCc3cnn(C)c3)CC2)n1 [Example 24q]
4. COc1cc(-c2nc(CS(C)(=O)=O)cc(N3CCOC[C@@H]3C)n2)ccc1NC(=O)N(C)C
5. CS(=O)(=O)Cc1cc(N2CCOCC2)nc(-c2ccc(NC(=O)Nc3ccc(F)c(Cl)c3)cc2)n1
6. C[C@H]1COCCN1c1cc(C(C)(C)S(C)(=O)=O)nc(-c2ccc(NC(=O)NCc3cnn(C)c3)nc2)n1 [Example 24bi]

1. 4.8
2. 87
3. 5800
4. 1200
5. 1300
6. 430

// input: 7 molecules below; output: IC50 for each
1. C[C@H]1COCCN1c1cc(CS(C)(=O)=O)nc(-c2ccc(NC(=O)N3CCCC(O)C3)cc2)n1 (stereo partly drawn) [Example 35i]
2. CCCCCNC(=O)Nc1ccc(-c2nc(CS(C)(=O)=O)cc(N3CCOCC3)n2)cc1
3. C[C@H]1COCCN1c1cc(CNc2ccccc2)nc(-c2ccc(NC(=O)Nc3ccccc3)cc2)n1
4. COc1ccc(NC(=O)Nc2ccc(-c3nc(CS(C)(=O)=O)cc(N4CCOC[C@@H]4C)n3)cc2OC)cc1
5. C[C@H]1COCCN1c1cc(CN2CCN(C)CC2)nc(-c2ccc(NC(=O)Nc3ccccc3)cc2)n1 [Example 30a]
6. C[C@H]1COCCN1c1cc(CNC2CC2)nc(-c2ccc(NC(=O)NC3CC3)cc2)n1
7. CNC(=O)Nc1ccc(-c2nc(CS(=O)(=O)C(C)C)cc(N3CCOCC3)n2)cc1 [Example 20k]

770
1900
900
550
120
33
36

// input: 2 molecules below; output: IC50 for each
1. C[C@H]1COCCN1c1cc(CS(C)(=O)=O)nc(-c2cnc(NC(=O)N(C)C3CC3)s2)n1 [Example 46e]
2. CCNC(=O)Nc1cccc(-c2nc(CS(C)(=O)=O)cc(N3CCOC[C@@H]3C)n2)c1

710
920

---

TARGET_OR_SYSTEM: recombinant mTOR (FLAG-tagged, residues 1362-2549) (Homo sapiens, UniProt P42345)
RUN_DESCRIPTION: In vitro mTOR kinase assay (Test (a), AlphaScreen)
RUN_PARAMETERS: ATP 20 μM, read-out: Test (a): IC50 versus mTOR kinase
From the text: (a) In Vitro mTOR Kinase Assay Following expression in the mammalian HEK293 cell line, expressed protein was purified using the FLAG epitope tag using standard purification techniques. […] The resultant signals arising from laser light excitation at 680 nm were read using a Packard Envision instrument. […] mTOR enzyme inhibition for a given test compound was expressed as an IC50 value.
PARAMETER_MEASURED: pIC50
Numbers only, as −log10 of the molar value.

{"MOLECULE": "COCCN(C)C(=O)Nc1ccc(-c2nc(CS(C)(=O)=O)cc(N3CCOC[C@@H]3C)n2)cc1F [Example 4f]", "TARGET_OR_SYSTEM": "recombinant mTOR (FLAG-tagged, residues 1362-2549) (Homo sapiens, UniProt P42345)", "MEASUREMENT": 6.17}
{"MOLECULE": "CN(C(=O)Nc1ccc(-c2nc(CS(C)(=O)=O)cc(N3CCOCC3)n2)cc1)C1CC1 [Example 8e]", "TARGET_OR_SYSTEM": "recombinant mTOR (FLAG-tagged, residues 1362-2549) (Homo sapiens, UniProt P42345)", "MEASUREMENT": 6.55}
{"MOLECULE": "C[C@H]1COCCN1c1cc(CS(=O)(=O)c2ccc(F)cc2)nc(-c2ccc(NC(=O)NC3CC3)cc2)n1 [Example 43b]", "TARGET_OR_SYSTEM": "recombinant mTOR (FLAG-tagged, residues 1362-2549) (Homo sapiens, UniProt P42345)", "MEASUREMENT": 6.82}
{"MOLECULE": "C[C@H]1COCCN1c1cc(CN(C)C2CC2)nc(-c2ccc(NC(=O)NCc3cnn(C)c3)cc2)n1 [Example 52b]", "TARGET_OR_SYSTEM": "recombinant mTOR (FLAG-tagged, residues 1362-2549) (Homo sapiens, UniProt P42345)", "MEASUREMENT": 6.24}
{"MOLECULE": "CNC(=O)Nc1ccc(-c2nc(CS(=O)(=O)c3ccccc3Cl)cc(N3CCOC[C@@H]3C)n2)cc1 [Example 33a]", "TARGET_OR_SYSTEM": "recombinant mTOR (FLAG-tagged, residues 1362-2549) (Homo sapiens, UniProt P42345)", "MEASUREMENT": 7.22}
{"MOLECULE": "CS(=O)(=O)Cc1cc(N2CCOCC2)nc(-c2ccc(NC(=O)NCCc3cccs3)cc2)n1 [Example 7q]", "TARGET_OR_SYSTEM": "recombinant mTOR (FLAG-tagged, residues 1362-2549) (Homo sapiens, UniProt P42345)", "MEASUREMENT": 5.77}

# input for lookup
Notebook: pull reported pIC50 for recombinant mTOR (FLAG-tagged, residues 1362-2549) (Homo sapiens, UniProt P42345), entry C[C@H]1COCCN1c1cc(CS(C)(=O)=O)nc(-c2ccc(NC(=O)NCc3cncs3)cc2)n1 [Example 24j] 6.66

---

TARGET_OR_SYSTEM: recombinant mTOR (FLAG-tagged, residues 1362-2549) (Homo sapiens)
RUN_DESCRIPTION: In vitro mTOR kinase assay (Test (a), AlphaScreen)
RUN_PARAMETERS: ATP 20 μM, read-out: Test (a): IC50 versus mTOR kinase
Kindly supply the reported IC50 values for the records listed here.
Give bare numbers, in nM.

Consider the worked cases shown below.
{"COMPOUND": "C[C@H]1COCCN1C(=O)Nc1ccc(-c2nc(CS(C)(=O)=O)cc(N3CCOC[C@@H]3C)n2)cc1 [Example 35n]", "TARGET_OR_SYSTEM": "recombinant mTOR (FLAG-tagged, residues 1362-2549) (Homo sapiens)", "IC50, nM": 1100}
{"COMPOUND": "C[C@H]1COCCN1c1cc(CS(C)(=O)=O)nc(-c2ccc(NC(=O)Nc3ccc(F)cc3)cc2)n1 [Example 1e]", "TARGET_OR_SYSTEM": "recombinant mTOR (FLAG-tagged, residues 1362-2549) (Homo sapiens)", "IC50, nM": 320}
{"COMPOUND": "CN(CCS(C)(=O)=O)C(=O)Nc1ccc(-c2nc(CS(C)(=O)=O)cc(N3CCOCC3)n2)cc1 [Example 45x]", "TARGET_OR_SYSTEM": "recombinant mTOR (FLAG-tagged, residues 1362-2549) (Homo sapiens)", "IC50, nM": 1100}
{"COMPOUND": "COCc1cc(N2CCOC[C@@H]2C)nc(-c2ccc(NC(=O)Nc3ccccc3)cc2)n1 [Example 32]", "TARGET_OR_SYSTEM": "recombinant mTOR (FLAG-tagged, residues 1362-2549) (Homo sapiens)", "IC50, nM": 6.2}

// input: 3 compounds below; output: IC50 for each
1. C[C@H]1COCCN1c1cc(CS(=O)(=O)c2ccccc2C(F)(F)F)nc(-c2ccc(NC(=O)NC3CC3)cc2)n1 [Example 43f]
2. CS(=O)(=O)Cc1cc(N2CCOCC2)nc(-c2ccc(NC(=O)NC3CCCCC3)cc2)n1 [Example 7l]
3. C[C@H]1COCCN1c1cc(CO)nc(-c2ccc(NC(=O)N(C)C)cc2)n1 [Example 10]

[110, 7000, 19000]
